Taken from paper PMC12416549.

# system-tested: T1, TNFR1 (Homo sapiens, UniProt P19438)
# T1 chain: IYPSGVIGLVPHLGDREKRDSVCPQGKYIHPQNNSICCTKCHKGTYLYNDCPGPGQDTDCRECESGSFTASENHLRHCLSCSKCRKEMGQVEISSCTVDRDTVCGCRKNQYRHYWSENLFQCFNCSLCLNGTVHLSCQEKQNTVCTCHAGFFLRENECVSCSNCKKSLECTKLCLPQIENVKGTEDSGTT
# procedure-summary: yeast display SC50
quantity-measured: apparent Kd (screen) (pM)

Look over these answered cases.
V57L (designed binder) MTLQELLREEALRRAEAEAFRYALELLAEKFPEQKEYLLDLAEEIESQIRSLSGVDLEDVRKFLDKEWAWVKELLAEHPAELAEVEAARAARLAELRAEVEAKVAA = 539
W70E (designed binder) MTLQELLREEALRRAEAEAFRYALELLAEKFPEQKEYLLDLAEEIESQIRSLSGVDVEDVRKFLDKEWAEVKELLAEHPAELAEVEAARAARLAELRAEVEAKVAA = 26900
E36C (designed binder) MTLQELLREEALRRAEAEAFRYALELLAEKFPEQKCYLLDLAEEIESQIRSLSGVDVEDVRKFLDKEWAWVKELLAEHPAELAEVEAARAARLAELRAEVEAKVAA = 539
R97I (designed binder) MTLQELLREEALRRAEAEAFRYALELLAEKFPEQKEYLLDLAEEIESQIRSLSGVDVEDVRKFLDKEWAWVKELLAEHPAELAEVEAARAARLAELIAEVEAKVAA = 539
A19M (designed binder) MTLQELLREEALRRAEAEMFRYALELLAEKFPEQKEYLLDLAEEIESQIRSLSGVDVEDVRKFLDKEWAWVKELLAEHPAELAEVEAARAARLAELRAEVEAKVAA = 539

P: E46C (designed binder) MTLQELLREEALRRAEAEAFRYALELLAEKFPEQKEYLLDLAEEICSQIRSLSGVDVEDVRKFLDKEWAWVKELLAEHPAELAEVEAARAARLAELRAEVEAKVAA
Q: F31G (designed binder) MTLQELLREEALRRAEAEAFRYALELLAEKGPEQKEYLLDLAEEIESQIRSLSGVDVEDVRKFLDKEWAWVKELLAEHPAELAEVEAARAARLAELRAEVEAKVAA
Prompt: Between the entries labeled P and Q , whose measured apparent Kd (screen) is lower? // output: label of the selected item
Response: P
(P: 304 pM, Q: 869 pM)
